Consider the following binders; for each one, report its 100 nM Ag Bound (RU).
Target: mNPR1-mFc:hBNP complex (mouse; human) (UniProt P16860)
Assay: SPR Biacore, mAb captured by anti-human Fc, 37C
Answers are plain numbers, in RU.

>  <binder>
mAb25502 (antibody, human IgG4, V domains shown) VH: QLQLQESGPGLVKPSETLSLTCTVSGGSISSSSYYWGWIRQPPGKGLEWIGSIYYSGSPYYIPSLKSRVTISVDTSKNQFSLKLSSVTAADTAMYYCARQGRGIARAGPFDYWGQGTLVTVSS VL: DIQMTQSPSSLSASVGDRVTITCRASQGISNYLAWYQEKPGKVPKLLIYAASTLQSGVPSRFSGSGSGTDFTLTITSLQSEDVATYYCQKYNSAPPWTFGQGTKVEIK

>  <100 nM Ag Bound (RU)>
34

$$$$
>  <binder>
mAb22033 (antibody, human IgG4, V domains shown) VH: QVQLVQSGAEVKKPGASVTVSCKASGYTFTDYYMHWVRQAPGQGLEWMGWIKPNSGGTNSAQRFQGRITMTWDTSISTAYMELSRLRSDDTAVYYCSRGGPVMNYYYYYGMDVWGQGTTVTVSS VL: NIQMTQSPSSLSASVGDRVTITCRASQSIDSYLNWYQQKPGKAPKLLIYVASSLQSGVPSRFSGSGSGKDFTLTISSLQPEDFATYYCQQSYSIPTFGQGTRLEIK

>  <100 nM Ag Bound (RU)>
4

$$$$
>  <binder>
mAb25497 (antibody, human IgG4, V domains shown) VH: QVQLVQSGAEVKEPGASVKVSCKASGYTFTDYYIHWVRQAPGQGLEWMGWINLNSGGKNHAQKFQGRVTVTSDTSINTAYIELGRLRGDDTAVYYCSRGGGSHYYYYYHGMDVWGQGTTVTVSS VL: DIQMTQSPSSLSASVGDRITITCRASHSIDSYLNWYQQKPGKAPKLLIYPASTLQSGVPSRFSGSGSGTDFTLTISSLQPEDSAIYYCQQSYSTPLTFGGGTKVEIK

>  <100 nM Ag Bound (RU)>
2

$$$$

Now consider a different binder.
Summary for this binder, mAb22809 (antibody, human IgG4, V domains shown) VH: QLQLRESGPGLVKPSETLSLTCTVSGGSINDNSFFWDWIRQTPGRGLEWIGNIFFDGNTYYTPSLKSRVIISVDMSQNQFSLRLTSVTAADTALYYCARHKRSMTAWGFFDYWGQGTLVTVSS VL: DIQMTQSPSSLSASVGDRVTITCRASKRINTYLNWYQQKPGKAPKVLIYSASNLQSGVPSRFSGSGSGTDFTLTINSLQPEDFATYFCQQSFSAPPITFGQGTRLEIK : 100 nM Ag Bound (RU) is 1
